target: human TRPV1 (Homo sapiens, UniProt Q8NER1); construct: using primers designed surrounding the complete hTRPV1 open reading frame; expressed in transfected cells; host or cells: CHO-K1 cells stably transfected with pcDNA3.1(-)-hVR1 plasmid; assay: Capsaicin-based assay, Protocol 2 (TRPV1/CHO cells, Fluo-4, FLIPR); type: cell-based; details: capsaicin 100 nM final, mean ± SEM, number of trials in parentheses, read-out: TRPV1 IC50 Potency, Human Capsaicin CHO (hCAP-CHO)
Sequence (Q8NER1 whole entry): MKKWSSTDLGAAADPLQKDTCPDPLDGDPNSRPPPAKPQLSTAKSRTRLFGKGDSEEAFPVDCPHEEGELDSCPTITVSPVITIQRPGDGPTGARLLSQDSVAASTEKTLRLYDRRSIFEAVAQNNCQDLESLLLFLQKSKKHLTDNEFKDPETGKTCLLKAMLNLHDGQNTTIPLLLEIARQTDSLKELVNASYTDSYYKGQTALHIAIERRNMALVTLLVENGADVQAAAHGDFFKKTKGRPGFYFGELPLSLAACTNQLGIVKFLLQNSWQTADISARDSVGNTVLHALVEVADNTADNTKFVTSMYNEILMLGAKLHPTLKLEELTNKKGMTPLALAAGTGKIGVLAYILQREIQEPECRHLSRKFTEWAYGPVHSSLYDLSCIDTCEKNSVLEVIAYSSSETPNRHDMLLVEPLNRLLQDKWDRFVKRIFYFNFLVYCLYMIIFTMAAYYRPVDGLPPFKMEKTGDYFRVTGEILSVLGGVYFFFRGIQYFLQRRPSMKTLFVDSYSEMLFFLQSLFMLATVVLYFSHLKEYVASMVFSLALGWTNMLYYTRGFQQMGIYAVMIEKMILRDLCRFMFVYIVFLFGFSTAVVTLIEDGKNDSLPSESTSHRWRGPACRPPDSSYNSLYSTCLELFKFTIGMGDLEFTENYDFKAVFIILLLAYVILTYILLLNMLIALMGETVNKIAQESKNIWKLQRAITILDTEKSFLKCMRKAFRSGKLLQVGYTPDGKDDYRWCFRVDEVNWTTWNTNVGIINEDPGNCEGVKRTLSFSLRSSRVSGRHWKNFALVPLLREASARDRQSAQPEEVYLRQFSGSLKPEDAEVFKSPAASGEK
pIC50: −log10 of the molar value.
READOUT KIND: pIC50

Examples from the recorded data:
> print(dat)
                                   molecule  reading
1  COCc1cnc(C2=CCN(C(=O)Nc3ccc(S(=O)(=O)C(F)(F)F)cc3)CC2)c(Cl)c1 [Compound A3]     6.38
2  COc1cc(NC(=O)N2CCC(F)(c3ncc([C@H](O)CO)cc3F)CC2)ccc1C(F)(F)F [Compound C5]     6.97
3  O=C(Nc1ccc(C(F)(F)F)cc1)N1CCC(F)(c2ncc(C(O)(CO)CO)cc2Cl)CC1 [Compound T5]     6.35
4  COCc1cnc(C2=CCN(C(=O)Nc3ccc(C(F)(F)F)cc3)CC2)c(Cl)c1 [Compound F3]     6.04
5  COc1cc(C(F)(F)F)ccc1NC(=O)N1CC=C(c2ncc(CO)cc2Cl)CC1 [Compound J3]     5.53
6  O=C(Nc1nc2ccc(F)cc2s1)N1CC=C(c2ncc([C@H](O)CO)cc2Cl)CC1 [Compound R1]     7.29
7  COc1cc(NC(=O)N2CCC(F)(c3ncc([C@@H](O)CO)cc3Cl)CC2)ccc1C(F)(F)F [Compound E4]     7.12
8  O=C(Nc1nc2ccc(F)cc2s1)N1CCN(c2ncc([C@H](O)CO)cc2Cl)CC1 [Compound V6]     7.80

(A) O=C(Nc1ccc(S(=O)(=O)C(F)(F)F)cc1)N1CC=C(c2ncc(CO)cc2Cl)CC1 [Compound C2]
(B) Cc1cc(NC(=O)N2CC=C(c3ncc([C@@H](O)CO)cc3Cl)CC2)ccc1OC(F)(F)F [Compound R5]
Between item A and item B , which reported pIC50 is smaller? Indicate your choice by writing its label.
B
(B: 6.46, A: 7.01)

* * *

Target: human TRPV1 (Homo sapiens)
Construct: using primers designed surrounding the complete hTRPV1 open reading frame; expressed in transfected cells; host or cells: CHO-K1 cells stably transfected with pcDNA3.1(-)-hVR1 plasmid
Assay: Capsaicin-based assay, Protocol 2 (TRPV1/CHO cells, Fluo-4, FLIPR)
Assay type: cell-based
Conditions: capsaicin 100 nM final, mean ± SEM, number of trials in parentheses, read-out: TRPV1 IC50 Potency, Human Capsaicin CHO (hCAP-CHO)
From the text: The TRPV1/CHO cell line was generated as described below. […] The resulting PCR products were purified from agarose gels using Gel Band Purification Kit (GE Healthcare Bioscience) and were subcloned into pCR-Blunt vector (Invitrogen). […] The plates were then transferred to a Fluorescence Imaging Plate Reader (Molecular Devices). Fluorescence intensity was monitored for 15 seconds to establish a baseline. […]
READOUT KIND: IC50 (nM)

Examples from the recorded data:
> print(dat)
                                   molecule  reading
1  O=C(Nc1ccc(C(F)(F)F)c(F)c1)N1CC=C(c2ncccc2F)CC1      182
2  CC(C)(C)c1ccc(NC(=O)N2CC=C(c3ncc([C@@H](O)CO)cc3F)CC2)cc1 [Compound E1]     18.5

(P) COc1cc(NC(=O)N2CCC(F)(c3ncc([C@H](O)CO)cc3Cl)CC2)ccc1C(F)(F)F
(Q) O=C(Nc1ccc(C(F)(F)F)cc1)N1CCN(c2ncc([C@H](O)CO)cc2Cl)CC1
Between item P and item Q , which reported IC50 is smaller? Indicate your choice by writing its label.
Q
(Q: 7 nM, P: 34 nM)

(A) O=C(Nc1ccc(C(F)(F)F)cn1)N1CC=C(c2ncccc2Cl)CC1
(B) O=C(Nc1nc2ccc(Cl)cc2s1)N1CC=C(c2ncc([C@H](O)CO)cc2F)CC1
Given A and B , report the one with the higher recorded IC50. Indicate your choice by writing its label.
A
